Recorded pEC50, one value per entry.
measurement target: Muscarinic acetylcholine receptor M2 (Sus scrofa, UniProt P06199)
protocol notes: Allosteric potency against the dissociation of radioligand [3H]N-methylscopolamine from the porcine cardiac Muscarinic acetylcholine receptor M2
Keep it numeric: pEC50 is minus log10 of the concentration in mol/L.

Solved entries (count: 4):
- O=C1c2ccccc2C(=O)N1CCCO/N=C/c1cc[n+](CCCCCC[n+]2ccc(/C=N/OCCCN3C(=O)c4ccccc4C3=O)cc2)cc1: 6.35
- C[N+](C)(CCCCC[N+](C)(C)CCCN1C(=O)c2ccccc2C1=O)CCCN1C(=O)c2ccccc2C1=O.[Br-].[Br-]: 5.86
- O=C1c2ccccc2C(=O)N1CO/N=C/c1cc[n+](CCCCCC[n+]2ccc(/C=N/OCN3C(=O)c4ccccc4C3=O)cc2)cc1: 5.85
- C[N+](C)(CCCC[N+](C)(C)CCCN1C(=O)c2ccccc2C1=O)CCCN1C(=O)c2ccccc2C1=O.[Br-].[Br-]: 5.57

Query: Quickly give me recorded pEC50 for O=C1c2ccccc2C(=O)N1CO/N=C/c1cc[n+](CCCC[n+]2ccc(/C=N/OCN3C(=O)c4ccccc4C3=O)cc2)cc1
Response: 5.72

---

protocol notes: Half life (t1/2) value of the compound.
Assay type: ADME
quantity name: half-life (h)
The reply should be a number in h, with the unit left off.

Query: Quickly give me recorded half-life for C[N+](C)(CCCCCCCC[N+](C)(C)CCCN1C(=O)c2ccccc2C1=O)CCCN1C(=O)c2ccccc2C1=O.[Br-].[Br-]
Response: 35.2

Query: Quickly give me recorded half-life for C[N+](C)(CCCCCCC[N+](C)(C)CCCN1C(=O)c2ccccc2C1=O)CCCN1C(=O)c2ccccc2C1=O.[Br-].[Br-]
Response: 16.4

Query: Quickly give me recorded half-life for C[N+](C)(CCCC[N+](C)(C)CCCN1C(=O)c2ccccc2C1=O)CCCN1C(=O)c2ccccc2C1=O.[Br-].[Br-]
Response: 14

Query: Quickly give me recorded half-life for C[N+](C)(CCCCCCCCCC[N+](C)(C)CCCN1C(=O)c2ccccc2C1=O)CCCN1C(=O)c2ccccc2C1=O.[Br-].[Br-]
Response: 19.3

---

measurement target: UniProt P06199
Sequence (P06199 whole entry): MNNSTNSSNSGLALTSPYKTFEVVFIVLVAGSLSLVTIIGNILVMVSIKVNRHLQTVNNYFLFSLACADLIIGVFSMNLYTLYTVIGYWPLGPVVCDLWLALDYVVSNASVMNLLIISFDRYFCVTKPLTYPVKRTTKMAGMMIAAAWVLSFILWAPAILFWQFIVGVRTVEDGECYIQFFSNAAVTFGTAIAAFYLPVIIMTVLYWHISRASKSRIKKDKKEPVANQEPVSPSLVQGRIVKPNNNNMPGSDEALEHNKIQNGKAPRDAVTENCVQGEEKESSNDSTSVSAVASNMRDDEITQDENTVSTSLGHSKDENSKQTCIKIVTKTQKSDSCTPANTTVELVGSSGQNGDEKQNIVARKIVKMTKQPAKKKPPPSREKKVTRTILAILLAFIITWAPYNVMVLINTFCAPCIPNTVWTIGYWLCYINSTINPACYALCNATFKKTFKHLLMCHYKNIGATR
protocol notes: Allosteric potency against the dissociation of radioligand [3H]N-methylscopolamine from the porcine cardiac Muscarinic acetylcholine receptor M2
Recorded EC50, one value per entry.
The reply should be a number in nM, with the unit left off.

- O=C1c2ccccc2C(=O)N1CCCO/N=C/c1cc[n+](CCCCC[n+]2ccc(/C=N/OCCCN3C(=O)c4ccccc4C3=O)cc2)cc1: 510
- C[N+](C)(CCCN1C(=O)c2ccccc2C1=O)CCCN1C(=O)c2ccccc2C1=O: 8820
- O=C1c2ccccc2C(=O)N1CCCC[n+]1ccc(-c2cc[n+](CCCCN3C(=O)c4ccccc4C3=O)cc2)cc1: 4650

Query: Quickly give me recorded EC50 for O=C1c2ccccc2C(=O)N1CCC[n+]1ccc(CCc2cc[n+](CCCN3C(=O)c4ccccc4C3=O)cc2)cc1
Response: 2340

Query: Quickly give me recorded EC50 for O=C1c2ccccc2C(=O)N1CCCO/N=C/c1cc[n+](CCC[n+]2ccc(/C=N/OCCCN3C(=O)c4ccccc4C3=O)cc2)cc1
Response: 520

Query: Quickly give me recorded EC50 for O=C1c2ccccc2C(=O)N1CCCC[n+]1ccc(CCCc2cc[n+](CCCCN3C(=O)c4ccccc4C3=O)cc2)cc1
Response: 630

Query: Quickly give me recorded EC50 for C[N+](C)(CCCCCCCCCC[N+](C)(C)CCCN1C(=O)c2ccccc2C1=O)CCCN1C(=O)c2ccccc2C1=O.[Br-].[Br-]
Response: 530

Data provenance is ChEMBL document CHEMBL1132599.
